The measured values listed here are drawn from patent US5698411A.

system: granulocytes; experiment: aberrant enzyme activities in febrile children, granulocytes (Table 7); format: cell-based, human; details: P88 Enteritis
Numbered stars: 1 amine (or outer) side, 2 acyl side, 3 side chain; on linkers, the order of the positions; unused ones are H or OH. Bridge positions count the residues as written; N and C are the ends. Peptide text beside a SMILES is read from it. I, II: the chains in the order shown. Rhodamine110 = O=C1OC2(c3ccc(N[*:1])cc3Oc3cc(N[*:2])ccc32)c2ccccc21

| MOLECULE | TGT | aberrant enzyme activity, GRANS |
| --- | --- | --- |
| CC(=O)Oc1ccc2c(c1)Oc1cc(OC(C)=O)ccc1C21OC(=O)c2ccccc21 [FDA-NAF, fluorescein diacetate, reference compound] | granulocytes | .smallcircle. |
| O=C1OC2(c3ccc(OC4O[C@H](CO)[C@H](O)[C@H](O)[C@H]4O)cc3Oc3cc(OC4O[C@H](CO)[C@H](O)[C@H](O)[C@H]4O)ccc32)c2ccccc21 (stereo partly drawn) [GALAC, (D-galactose)2 fluorescein] | granulocytes | .smallcircle. |
| C[C@H](N)C(=O)Nc1ccc2c(c1)Oc1cc(NC(=O)[C@H](C)N)ccc1C21OC(=O)c2ccccc21 [ALA, (Ala)2 Rho 110] | granulocytes | .smallcircle. |
| CC(=O)Oc1cc2c(cc1Cl)C(c1ccccc1C(=O)O)c1cc(Cl)c(OC(C)=O)cc1O2 [DCFH-DA MES, reference compound] | granulocytes | .smallcircle. |
| C[C@H](NC(=O)[C@@H](N)CCCCN)C(=O)Nc1ccc2c(c1)Oc1cc(NC(=O)[C@H](C)NC(=O)[C@@H](N)CCCCN)ccc1C21OC(=O)c2ccccc21 [KA-M, (Lys-Ala)2 Rho 110] | granulocytes | .smallcircle. |
| C[C@H](NC(=O)CNC(=O)[C@H](Cc1ccccc1)NC(=O)CN)C(=O)Nc1ccc2c(c1)Oc1cc(NC(=O)[C@H](C)NC(=O)CNC(=O)[C@H](Cc3ccccc3)NC(=O)CN)ccc1C21OC(=O)c2ccccc21 [GFGA, (Gly-Phe-Gly-Ala)2 Rho 110] (I: H-GFGA / II: H-GFGA; linker I:C-II:C via Rhodamine110) | granulocytes | .smallcircle. |
| CC(=O)Oc1ccc2c(c1)Oc1cc(OC(C)=O)ccc1C21OC(=O)c2ccccc21 [FDA, fluorescein diacetate, reference compound] | granulocytes | .smallcircle. |

###

system: lymphocytes; assay: peptidase activity in leukemia and non-leukemia patients, lymphocytes (Table 6C); assay type: cell-based, human; design: unit not given here; conditions: J19 11/27/91 C L L
TEST_READOUT: enzyme activity, Lymphs

| COMPOUND | TGT | OBS_VALUE |
| --- | --- | --- |
| C[C@@H](O)[C@H](N)C(=O)N1CCC[C@H]1C(=O)Nc1ccc2c(c1)Oc1cc(NC(=O)[C@@H]3CCCN3C(=O)[C@@H](N)[C@@H](C)O)ccc1C21OC(=O)c2ccccc21 [TP, (H-L-Thr--Pro)2 Rho 110 .2TFA] | lymphocytes | 0.50 |
| NCCCC[C@H](N)C(=O)Nc1ccc2c(c1)Oc1cc(NC(=O)[C@@H](N)CCCCN)ccc1C21OC(=O)c2ccccc21 [LYS, (H-L-Lys)2 Rho 110 .4TFA] | lymphocytes | 0.98 |
| NCC(=O)N1CCC[C@H]1C(=O)Nc1ccc2c(c1)Oc1cc(NC(=O)[C@@H]3CCCN3C(=O)CN)ccc1C21OC(=O)c2ccccc21 [GP, (H-Gly--Pro)2 Rho .2TFA] | lymphocytes | 1.73 |
